Biological target: T1, human MSR1 extracellular domain expressed with a N-terminal nonahistidine tag (His9-hMSR1); R&D Systems, Cat … (human, UniProt P21757 77-451)
T1 construct: extracellular domain; Bought reagent; also called His-hMSR1; 9xHis-hMSR1
T1 sequence: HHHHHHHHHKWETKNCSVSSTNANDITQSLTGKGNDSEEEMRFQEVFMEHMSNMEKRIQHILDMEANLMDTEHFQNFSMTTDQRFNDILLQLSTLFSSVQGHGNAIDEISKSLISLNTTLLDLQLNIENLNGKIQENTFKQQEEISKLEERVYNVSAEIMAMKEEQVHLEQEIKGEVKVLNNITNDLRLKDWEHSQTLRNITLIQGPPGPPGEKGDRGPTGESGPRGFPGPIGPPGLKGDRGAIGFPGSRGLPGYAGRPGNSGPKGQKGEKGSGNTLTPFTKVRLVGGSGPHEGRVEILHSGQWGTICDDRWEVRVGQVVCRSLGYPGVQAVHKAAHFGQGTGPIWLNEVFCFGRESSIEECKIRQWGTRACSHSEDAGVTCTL
Assay: SPR Biacore T200, 25 C, antibody captured by anti-human Fc, His9-hMSR1 injected;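 also: running buffer HBS-ET pH 7.4, rates from sensorgrams fitted to a 1:1 model including mass transport limitation, KD and half-life derived from the kinetic constants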
ASSAY_METRIC: kon (M⁻¹ s⁻¹)

BINDER	MEASURED
H1H27734P-N297Q-LP1 (antibody, human IgG1, V domains shown, LXR agonist linker-payload LP1 clicked to azido-PEG3-amine on Q295 and Q297 (EU) of the heavy chain constant region, antibody-drug conjugate; human IgG1 Fc with N297Q (EU); also called H1H27734P-LP1) VH: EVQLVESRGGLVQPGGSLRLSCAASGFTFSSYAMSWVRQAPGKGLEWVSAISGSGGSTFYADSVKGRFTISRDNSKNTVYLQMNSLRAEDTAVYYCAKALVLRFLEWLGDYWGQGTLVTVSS VL: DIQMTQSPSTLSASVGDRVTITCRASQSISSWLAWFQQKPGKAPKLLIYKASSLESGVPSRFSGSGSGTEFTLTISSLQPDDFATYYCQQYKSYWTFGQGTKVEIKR	69300
H1H27731P-N297Q-LP1 (antibody, V domains shown, LXR agonist linker-payload LP1 clicked to azido-PEG3-amine on Q295 and Q297 (EU) of the heavy chain constant region, antibody-drug conjugate; human IgG1 Fc with N297Q (EU); also called H1H27731P-LP1) VH: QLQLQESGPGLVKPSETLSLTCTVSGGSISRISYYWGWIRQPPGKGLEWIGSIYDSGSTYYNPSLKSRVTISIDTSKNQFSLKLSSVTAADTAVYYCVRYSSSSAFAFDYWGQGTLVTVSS VL: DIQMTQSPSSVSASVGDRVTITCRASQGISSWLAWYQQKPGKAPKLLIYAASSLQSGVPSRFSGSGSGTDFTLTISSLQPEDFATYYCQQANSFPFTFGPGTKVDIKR	128000
H1H27739P-N297Q-LP1 (antibody, human IgG1, V domains shown, LXR agonist linker-payload LP1 clicked to azido-PEG3-amine on Q295 and Q297 (EU) of the heavy chain constant region, antibody-drug conjugate; human IgG1 Fc with N297Q (EU); also called H1H27739P-LP1) VH: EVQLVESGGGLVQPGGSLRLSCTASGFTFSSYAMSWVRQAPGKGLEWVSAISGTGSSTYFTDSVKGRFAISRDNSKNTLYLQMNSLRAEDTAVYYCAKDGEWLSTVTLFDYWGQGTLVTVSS VL: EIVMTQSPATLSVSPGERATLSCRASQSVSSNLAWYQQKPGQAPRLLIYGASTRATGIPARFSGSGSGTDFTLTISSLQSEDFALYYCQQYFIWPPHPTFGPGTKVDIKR	88800

This collection of values is drawn from patent US20190367631A1.
